biological target: Cytochrome P450 2D6 (Homo sapiens) (UniProt P10635); experiment: Cytochrome panel assay with activity outcomes; settings: recombinant CYP, pro-luciferin dealkylation, luminescence, p450-cyp2d6; series mostly up to 57.1 µM
Sequence (P10635 whole entry, looked up): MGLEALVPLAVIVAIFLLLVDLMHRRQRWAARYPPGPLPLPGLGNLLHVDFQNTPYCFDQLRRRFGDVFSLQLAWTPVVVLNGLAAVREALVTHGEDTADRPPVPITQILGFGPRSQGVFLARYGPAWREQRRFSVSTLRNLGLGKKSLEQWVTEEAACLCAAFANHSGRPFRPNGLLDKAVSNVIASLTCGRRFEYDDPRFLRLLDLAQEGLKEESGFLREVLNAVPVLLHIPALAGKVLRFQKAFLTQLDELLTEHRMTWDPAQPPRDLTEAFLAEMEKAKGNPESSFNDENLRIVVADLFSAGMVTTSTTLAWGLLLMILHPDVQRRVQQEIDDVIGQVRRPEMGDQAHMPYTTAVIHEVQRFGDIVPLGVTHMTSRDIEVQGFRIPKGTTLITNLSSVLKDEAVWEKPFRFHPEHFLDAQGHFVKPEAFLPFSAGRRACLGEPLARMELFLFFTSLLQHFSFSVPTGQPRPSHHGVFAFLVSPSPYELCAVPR
Screen size: about 16,000 compounds; about 2,600 (16%) were called active. Inconclusive results (about 20%) are left out. Not all results are given here.
Measured Property: AC50

Reference set, count: 5
>>> df
                                   compound             result
0     CN(C)Cc1ccccc1-c1nccc(N(C)Cc2ccco2)n1  0.794 µM (active)
1  CC(=O)c1cc(NC(=O)c2cccc(C(F)(F)F)c2)c(=O)oc1/C=C/N(C)C           inactive
2  COc1ccc(-n2c(N)c(C(=O)NCc3ccco3)sc2=S)cc1           inactive
3  C=CCC(NCc1ccco1)c1ccc(OC)cc1 (configuration not stated)   5.01 µM (active)
4  COc1ccc(Oc2ncc3nc(CCc4ccccc4)c(=O)n(C4CC4)c3n2)cc1           inactive

Entry `CN(C)Cc1ccccc1-c1nccc(N(C)C)n1` has what AC50?
1 µM (active)

Then what about the compound COc1ccc(OC)c(NC(=O)C(CC(=O)O)NCc2ccco2)c1 (configuration not stated) ?
inactive

Further, for `COC(=O)CCC(=O)NNC(=O)CCCOc1ccc(Cl)cc1Cl` ?
inactive

Lookup `O=c1cnc2cnc(Oc3cccc(Cl)c3)nc2n1C[C@H]1CCCO1`
inactive

For `CN1CCN(c2ncc3nc(-c4ccc(Cl)cc4)c(=O)n(CCC#N)c3n2)CC1` then?
inactive

Okay, and `COc1ccccc1CNC(=O)CCN1C(=O)COc2ccc(C)cc21` ?
inactive

Can you handle `CC(C)(C)C(=O)NNC(=O)CCCOc1ccc(Cl)cc1Cl` next?
inactive

What about `CC(C)NC[C@H](O)c1cc(O)cc(O)c1` ?
inactive

What would you report for `Cc1ccc2c(c1)N(CCC(=O)NCc1ccc3c(c1)OCO3)C(=O)CO2` ?
14.1 µM (active)

Thanks! And `COc1ccc(C(=O)Nc2nc3c(s2)Cc2cc(OC)ccc2-3)cc1` ?
inactive

Ok, now `CCc1cccc(CC)c1NC(=O)CN(CC(=O)O)CC(=O)O`
inactive

// repeat for `CNc1ncnc2c1ncn2[C@@H]1O[C@H](CO)[C@@H](O)[C@@H]1O` and report
inactive

----------
molecular target: Cytochrome P450 2D6 (Homo sapiens); experiment: Cytochrome panel assay with activity outcomes; conditions: recombinant CYP, pro-luciferin dealkylation, luminescence, p450-cyp2d6; series mostly up to 57.1 µM
Screen size: about 16,000 compounds; about 2,600 (16%) were called active. Roughly 20% stayed inconclusive and do not appear here. The call rests on the fitted dose curve; in most records, active means well fitted curve in the direction sought with a large enough effect; inconclusive means small, poorly fitted or top-dose-only effect, or effect the other way; inactive means no such curve, though single readings can be large or run the other way. The list is a sample of the results.
Parameter call: string, one of active, inactive

Status in this test for `Cc1cccc(OCCCC(=O)Nc2ccc(N3CCCCC3)cc2)c1` ?
active

And for `O=C(CCc1ccccc1)NNC(=S)NC(=O)c1ccccc1` ?
inactive

Next entry: `Cc1cccn2c(/C=N/OCc3cccc(F)c3)c(-c3ccc(Cl)cc3)nc12`
inactive

Please answer likewise for O=C(NC(C(=O)c1ccccc1)n1cnccc1=O)c1ccccc1 (stereo unspecified)
inactive

Please answer likewise for `O=C(N/N=C/c1ccc(O)cc1)c1csc2ccccc12`
inactive

Then `CC(=O)Nc1ccc(C(=O)NNC(=O)CCc2ccccc2)cc1` ?
inactive

The reported numbers originate from PubChem BioAssay AID1851.
